- TEST SYSTEM: TLR9 (Homo sapiens, UniProt Q9NR96)
- Construct: expressed in transfected cells; host or cells: HEK293
- Sequence (Q9NR96 26-1032): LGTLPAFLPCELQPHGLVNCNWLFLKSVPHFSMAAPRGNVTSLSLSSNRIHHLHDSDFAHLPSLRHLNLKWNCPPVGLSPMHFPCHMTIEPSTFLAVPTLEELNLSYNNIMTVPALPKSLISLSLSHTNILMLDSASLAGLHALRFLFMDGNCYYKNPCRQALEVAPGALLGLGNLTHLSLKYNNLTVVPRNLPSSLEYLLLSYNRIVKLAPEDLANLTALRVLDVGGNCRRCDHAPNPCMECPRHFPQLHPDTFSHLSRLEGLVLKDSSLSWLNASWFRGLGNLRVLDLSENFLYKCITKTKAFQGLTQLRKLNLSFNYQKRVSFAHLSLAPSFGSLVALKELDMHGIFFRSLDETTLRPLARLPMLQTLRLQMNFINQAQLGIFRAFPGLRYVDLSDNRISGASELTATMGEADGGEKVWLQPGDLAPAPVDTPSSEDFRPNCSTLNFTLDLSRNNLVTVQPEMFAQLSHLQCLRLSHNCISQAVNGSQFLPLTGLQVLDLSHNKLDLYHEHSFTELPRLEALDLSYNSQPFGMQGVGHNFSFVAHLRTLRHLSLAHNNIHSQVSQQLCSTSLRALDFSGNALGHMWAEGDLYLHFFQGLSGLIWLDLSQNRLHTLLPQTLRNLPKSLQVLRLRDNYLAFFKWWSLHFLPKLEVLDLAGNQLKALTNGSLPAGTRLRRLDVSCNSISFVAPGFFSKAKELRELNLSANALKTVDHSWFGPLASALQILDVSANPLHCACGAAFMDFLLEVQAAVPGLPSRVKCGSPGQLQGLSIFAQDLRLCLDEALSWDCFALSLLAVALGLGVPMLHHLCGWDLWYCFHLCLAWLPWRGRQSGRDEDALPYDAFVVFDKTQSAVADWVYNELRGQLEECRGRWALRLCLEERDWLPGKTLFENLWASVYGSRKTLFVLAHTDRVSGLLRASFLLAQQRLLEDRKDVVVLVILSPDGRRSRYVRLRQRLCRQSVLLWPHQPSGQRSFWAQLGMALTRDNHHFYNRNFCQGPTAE
- TEST PROTOCOL: TLR9 screening of (+)-morphinan library, SEAP reporter in HEK293 cells expressing TLR9
- Format: cell-based
- PARTICULARS: 100 nM; activator ODN2006; control (no activator) 0.14, activator 1.42 OD
READOUT: OD 650 nm (mean ± sd)
Please don't drop the unit; write it after the number.

Input line: # lookup: OD 650 nm (mean ± sd) of O=C1CC[C@@H]2[C@@H]3Cc4ccc(OCc5ccccc5)c5c4[C@]2(CCN3CC2CC2)[C@@H]1O5
Output line: 1.12 ± 0.15 OD

Input line: # lookup: OD 650 nm (mean ± sd) of COc1ccc2c3c1O[C@@H]1C(OC)(OC)C(Br)CC4[C@H](C2)N(C)CC[C@]341 (stereo partly drawn)
Output line: 1.35 ± 0.06 OD

Input line: # lookup: OD 650 nm (mean ± sd) of COc1ccc2c3c1O[C@@H]1[C@@H]4CCC5(O4)[C@H](C2)N(C)CC[C@@]315
Output line: 1.24 ± 0.02 OD

Input line: # lookup: OD 650 nm (mean ± sd) of COc1ccc2c(c1O)[C@@]13CCN(C)[C@@H](C2)[C@@]1(O)CCC(=O)C3
Output line: 1.08 ± 0.05 OD

Input line: # lookup: OD 650 nm (mean ± sd) of COc1cc(C(C)C)c2c3c1O[C@@H]1C(=O)CCC4C(C2)N(CC2CC2)CC[C@]341 (stereo partly drawn)
Output line: 1.18 ± 0.06 OD

Input line: # lookup: OD 650 nm (mean ± sd) of COC1=CCC2[C@@H]3Cc4ccc(OC)c5c4[C@]2(CCN3)[C@@H]1O5 (stereo partly drawn)
Output line: 1.02 ± 0.02 OD

Input line: # lookup: OD 650 nm (mean ± sd) of COc1ccc2c3c1O[C@@H]1C(OC)(OC)CCC4[C@H](C2)N(CC2CC2)CC[C@]341 (stereo partly drawn)
Output line: 1.32 ± 0.00 OD

Input line: # lookup: OD 650 nm (mean ± sd) of COc1ccc2c3c1O[C@@H]1[C@H](O)CC[C@@H]4[C@H](C2)N(CC2CC2)CC[C@]341
Output line: 1.33 ± 0.07 OD

Input line: # lookup: OD 650 nm (mean ± sd) of C=CCN1CC[C@@]23c4c5ccc(OC)c4OC2C(NCCC)CCC3C1C5 (stereo partly drawn)
Output line: 0.12 ± 0.00 OD

Input line: # lookup: OD 650 nm (mean ± sd) of COc1cc(Br)c2c3c1OC1C(=O)CC[C@@H]4[C@H](C2)N(C)CC[C@@]314 (stereo partly drawn)
Output line: 1.22 ± 0.10 OD

Input line: # lookup: OD 650 nm (mean ± sd) of COc1ccc2c(c1O)[C@]13C=CCC[C@]1(O)[C@H](C2)N(C)CC3
Output line: 0.93 ± 0.15 OD

Input line: # lookup: OD 650 nm (mean ± sd) of C=CCN1CC[C@@]23c4c5c(Br)cc(OC)c4O[C@@H]2C(=O)CCC3C1C5 (stereo partly drawn)
Output line: 1.43 ± 0.01 OD

Input line: # lookup: OD 650 nm (mean ± sd) of NC1CC[C@]2(O)[C@@H]3Cc4ccc(O)c5c4[C@]2(CCN3CC2CC2)[C@@H]1O5 (stereo partly drawn)
Output line: 0.19 ± 0.01 OD

Input line: # lookup: OD 650 nm (mean ± sd) of COC1=CC=C2[C@@H]3Cc4c(Br)cc(OCc5ccccc5)c5c4[C@]2(CCN3CC2CC2)[C@@H]1O5
Output line: 1.15 ± 0.11 OD

Input line: # lookup: OD 650 nm (mean ± sd) of COc1ccc2c3c1O[C@@H]1C(NC(C)=O)CC[C@@H]4[C@H](C2)N(C)CC[C@@]314 (stereo partly drawn)
Output line: 1.25 ± 0.09 OD
